Values from patent US20090018150A1

target: cloned human 5-HT2A receptor (Homo sapiens, UniProt P28223); construct: purchased Euroscreen; host or cells: CHO-K1; test: Human 5-HT2A receptor binding assay; details: [3H]ketanserin (1 nM) displacement, CHO-K1 cell membranes; read-out: 5-HT2A pKi (converted)
Sequence (P28223 whole entry): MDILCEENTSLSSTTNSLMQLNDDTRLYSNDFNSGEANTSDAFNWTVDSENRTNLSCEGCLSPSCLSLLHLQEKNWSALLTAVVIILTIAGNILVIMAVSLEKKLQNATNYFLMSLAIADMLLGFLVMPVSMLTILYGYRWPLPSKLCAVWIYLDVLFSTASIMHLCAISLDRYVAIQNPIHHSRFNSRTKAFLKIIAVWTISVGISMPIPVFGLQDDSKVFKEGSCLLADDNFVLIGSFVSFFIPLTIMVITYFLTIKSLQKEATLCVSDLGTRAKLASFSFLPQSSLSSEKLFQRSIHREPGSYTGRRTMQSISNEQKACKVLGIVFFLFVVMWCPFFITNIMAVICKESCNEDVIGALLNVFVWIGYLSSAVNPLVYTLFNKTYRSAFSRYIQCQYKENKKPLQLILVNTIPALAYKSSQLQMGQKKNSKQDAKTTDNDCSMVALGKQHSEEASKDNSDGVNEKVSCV
Assay readout: Ki

Prompt: Look up and report measured Ki for this entry: COc1ccc(-c2c[nH]c(N)n2)c2ccccc12 [Compound 104B]
Completion: > 3.16 µM

* * *

biological target: human cloned 5-HT2B receptors (Homo sapiens, UniProt P41595); construct: expressed in transfected cells; host or cells: CHO-K1; test: Human cloned 5-HT2B receptor binding assay; details: [3H]LSD (1 nM) displacement, membranes of CHO-K1 cells expressing cloned 5-HT2B receptor; read-out: 5-HT2B pKi (converted)
Sequence (P41595 whole entry): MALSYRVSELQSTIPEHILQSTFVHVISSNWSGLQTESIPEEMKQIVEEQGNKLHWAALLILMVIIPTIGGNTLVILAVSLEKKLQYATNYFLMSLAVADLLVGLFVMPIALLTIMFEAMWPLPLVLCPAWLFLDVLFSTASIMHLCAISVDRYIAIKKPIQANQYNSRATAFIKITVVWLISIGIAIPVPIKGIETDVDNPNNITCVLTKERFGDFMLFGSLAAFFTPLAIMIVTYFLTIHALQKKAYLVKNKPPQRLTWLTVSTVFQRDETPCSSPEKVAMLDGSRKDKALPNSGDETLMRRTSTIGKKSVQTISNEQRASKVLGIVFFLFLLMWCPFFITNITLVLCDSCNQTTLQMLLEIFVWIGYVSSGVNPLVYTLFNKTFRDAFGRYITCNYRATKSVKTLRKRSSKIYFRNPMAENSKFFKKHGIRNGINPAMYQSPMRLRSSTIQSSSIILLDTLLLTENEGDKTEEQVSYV
Counter-ions that a name gives are not always drawn.
Reported Ki values for a set of molecules

Would you please look over these solved cases?
>  <Molecule>
Nc1ncc(-c2cccc(-c3cccc(O)c3)c2)o1 [Compound 209C, 3′-(2-Amino-oxazol-5-yl)-biphenyl-3-ol]

>  <Target system>
human cloned 5-HT2B receptors (Homo sapiens, UniProt P41595)

>  <Value observed>
< 1 µM

$$$$
>  <Molecule>
Cc1cc(Nc2ccc(I)c(Cl)c2)nc(N)n1 [Compound 2Y, hydrochloride]

>  <Target system>
human cloned 5-HT2B receptors (Homo sapiens, UniProt P41595)

>  <Value observed>
< 0.1 µM

$$$$
>  <Molecule>
Cc1cc(Nc2cccc(C(F)(F)F)c2)nc(N)n1 [Compound 2H, hydrochloride]

>  <Target system>
human cloned 5-HT2B receptors (Homo sapiens, UniProt P41595)

>  <Value observed>
< 1 µM

$$$$

Let us move to another entry and its Ki.
Prompt: Using the record for Cc1cc(Nc2ccc(Oc3ccccc3)cc2)nc(N)n1 [Compound 2AE, hydrochloride] , state its measured Ki.
Completion: < 0.1 µM

* * *

target: cloned human 5-HT2A receptor (Homo sapiens, UniProt P28223); construct: purchased Euroscreen; host or cells: CHO-K1; experiment: Human 5-HT2A receptor binding assay; conditions: [3H]ketanserin (1 nM) displacement, CHO-K1 cell membranes; read-out: 5-HT2A pKi (converted)
Where a name gives a salt, the structure may show the parent alone.
We begin with a simple list: items and their reported Ki.

Examples with answers:
>  <Molecule>
Cc1ccc(Nc2cc(C)nc(N)n2)cc1 [Compound 2U, hydrochloride]

>  <Target system>
cloned human 5-HT2A receptor (Homo sapiens, UniProt P28223)

>  <Value observed>
> 1000 nM

$$$$
>  <Molecule>
COc1ccccc1-c1ccc(OC)c(-c2cnc(N)o2)c1 [Compound 224B, trifluoroacetic acid]

>  <Target system>
cloned human 5-HT2A receptor (Homo sapiens, UniProt P28223)

>  <Value observed>
> 1000 nM

$$$$
>  <Molecule>
COc1c(-c2cnc(NC(C)=O)[nH]2)ccc2ccccc12 [Compound 103E]

>  <Target system>
cloned human 5-HT2A receptor (Homo sapiens, UniProt P28223)

>  <Value observed>
> 10000 nM

$$$$
>  <Molecule>
Cc1cc(Nc2ccc(Br)cc2)nc(N)n1 [Compound 2F, hydrochloride]

>  <Target system>
cloned human 5-HT2A receptor (Homo sapiens, UniProt P28223)

>  <Value observed>
> 10000 nM

$$$$

Prompt: Entry COc1ccccc1-c1cccc(Nc2cc(C)nc(N)n2)c1 [Compound 10F, trifluoroacetic acid] needs its Ki filled in; supply it.
Completion: > 316 nM
